Test system: SF-295
Test: NCI tumour cell line growth inhibition, 48 h
The source made the active and inactive calls. Cut-off read from the data, not from the text of the source: active = GI50 up to about 1.1 µM and inactive = higher.
Endpoint Name: GI50

Below are worked cases with known answers.
Molecule: CC(=O)/N=C1/N(/C=C2\C(=O)Oc3ccccc3C2=O)C(=O)/C(=C/c2ccccc2Cl)N1C
GI50: > 100 µM (inactive)
--
Molecule: NNC(=O)CC(=O)Nc1ccc(C(=O)O)cc1
GI50: > 100 µM (inactive)
--
Molecule: Cc1cccc(-n2c(N)c(-c3nc4ccccc4[nH]3)sc2=S)c1
GI50: 28.1 µM (inactive)

Query :: Item under review: CC12CC(=O)NN=C1c1ccccc1C2 (stereo not drawn) . Reported GI50?
Result :: > 100 µM (inactive)

###

Tested on: EKVX
Experiment: NCI tumour cell line growth inhibition, 48 h
Activity calls are given as the source filed them. No stated cut-off is given here; in the data, active = GI50 up to about 1.1 µM and inactive = higher.
Endpoint Name: GI50

Known GI50 results, listed for orientation:
Compound: CC(=O)OCC1OC(O[C@@H]2C[C@H]3C(C)(C)[C@@H](OC(C)=O)CC[C@]3(C)[C@H]3CC[C@]45C[C@]4(CC[C@H]5[C@@H](C)C[C@@H](O)[C@H](O)C(C)(C)F)[C@@]32C)C(O)C(O)C1O (stereo not given in full)
Target Desc: EKVX
GI50: 1.61 µM (inactive)
--
Compound: CN(NC(=O)CCCl)C1=NCCN1
Target Desc: EKVX
GI50: > 100 µM (inactive)
--
Compound: CCCCCCCCCC(=O)OCC1(CO)C/C(=C/CC(C(C)C)C(C)C)C(=O)O1 (stereo not given)
Target Desc: EKVX
GI50: 70.1 µM (inactive)

Query :: Can you share its GI50? I mean this compound: C1=Cc2cccc3occ(c23)C=C1
Result :: 49.3 µM (inactive)

Query :: One more compound: CC(=O)NC1=C(NC(C)(C)C)C(=O)c2ccccc2C1=O
Result :: 28.2 µM (inactive)

Query :: And the next one, Cc1ccc(S(=O)(=O)Nc2cccc(C)c2C)cc1 ?
Result :: 73.5 µM (inactive)

Query :: What do you get for O=C1/C(=C/c2ccco2)N=C2Sc3c([nH]cnc3=O)N12 ?
Result :: > 100 µM (inactive)

Query :: Try this compound next: C/C(=N\Nc1ccccc1)C(CN(C)C)C(c1ccccc1)c1c(O)c2ccccc2oc1=O (stereo not given)
Result :: > 100 µM (inactive)

Query :: Similarly, S=P(C1CCCCC1)(C1CCCCC1)C(c1cccnc1)N1CCCC1 (stereo not given) ?
Result :: 19.1 µM (inactive)

Query :: // query: O=C1c2ccccc2-c2ccc(O)cc21
Result :: 16.4 µM (inactive)

###

Tested on: PC-3
Assay: NCI tumour cell line growth inhibition, 48 h
Active and inactive are the calls of the source. Rule as the data show it: active = GI50 up to about 1.1 µM and inactive = higher.
// one of yes = active, no = inactive, no free text

Examples with answers:
Compound: Cc1nc2c(=O)n(-c3ccccc3)c(=O)n(-c3ccccc3)c2o1
Discrete Label: no
//
Compound: CC1=CC(O)C(C(O)(C(F)(F)F)C(F)(F)F)C(C)(C)C1 (stereo not given)
Discrete Label: no
//
Compound: C1=Cc2cccc3occ(c23)C=C1
Discrete Label: no
//
Compound: O=C1CCCN1C(=O)CS(=O)(=O)c1ccccc1
Discrete Label: no
//
Compound: CCN1CCC(O)(c2ccc([N+](=O)[O-])cc2)C(C(=O)c2ccc([N+](=O)[O-])cc2)C1 (stereo not given)
Discrete Label: no

Query :: Hello, I am checking results. What call was entered for O=C(CC(=O)Nc1ccccc1Cl)NNC(Sc1ccccc1)c1cc(/N=N/c2ccc(Br)cc2)ccc1O (stereo not given) ?
Result :: yes

Query :: And for NS(=O)(=O)c1ccc(NC2(C(=O)O)CCCC2)cc1 ?
Result :: no

Query :: Cc1cc(C)c(C#N)c(SC(=S)NC(=O)c2ccc(Cl)cc2)n1 , same question.
Result :: no

Query :: Input CC[C@@]1(O)C(=O)OCc2c1cc1n(c2=O)Cc2c-1nc1ccccc1c2Cl
Result :: yes

Query :: Input Cc1cc(S(=O)(=O)Nc2nc(Nc3ccc4ccccc4c3)n[nH]2)c(S)cc1Cl
Result :: no

Where do the numbers come from? From ChEMBL document CHEMBL1201862.
